What GI50 was measured for each of the following?
# Tested on: EKVX
# protocol: Growth inhibition of human EKVX cells incubated for 48 hrs by sulforhodamine B assay
# Assay type: functional
# conditionsUsed: read-out: GI50
Please reply with the bare figure in nM and do not write the unit itself.

Determine from records and report GI50 for Clc1ccc(-c2nc(Nc3ccc(-c4nc5ccccc5[nH]4)cc3)nc(N3CCOCC3)n2)cc1
1140

Determine from records and report GI50 for c1ccc2[nH]c(-c3ccc(Nc4nc(N5CCCCC5)nc(N5CCOCC5)n4)cc3)nc2c1
2680

Determine from records and report GI50 for Fc1ccc(-c2nc(Nc3ccc(-c4nc5ccccc5[nH]4)cc3)nc(N3CCOCC3)n2)cc1
2600

Determine from records and report GI50 for c1ccc(-c2nc(Nc3ccc(-c4nc5ccccc5[nH]4)cc3)nc(N3CCOCC3)n2)cc1
1590

Data credit: ChEMBL document CHEMBL3808334
